# credit: the supplement of paper PMC7125110

Attribute: log10 kcat
B1: glmS ribozyme (parent)
chain: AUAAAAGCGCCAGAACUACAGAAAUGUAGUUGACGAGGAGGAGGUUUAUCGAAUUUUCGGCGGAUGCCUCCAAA

variants of: B1; assay: kcat; higher = faster cleavage; RNA array; conditions: with glucosamine-6-phosphate
This sample holds only a part of the variants without activity.
Recorded kcat (log10, s⁻¹)

Completed entries (count: 4):
AUAAAAGCGACAGAACUACAGAAAUGUAGUUGACGAGGAGGAGGUUUAUCGAAUUUUCGGCGGAUGCCCCCAAA [C10A U69C] | -4.77
AUAAAAGCGCCAGAACUACAGAAAUGUAAUUGACGAGGAGGAGGUUUAUCGAAUUUUCGGCGGAUGCAUCCAAA [G29A C68A] | -4.79
AUAAAAGCGCCAGAACUACAGAAAUGUACUUGACGAGGCGGAGGUUUAUCGAAUUUUCGGCGGAUGCCUCCAAA [G29C A39C] | -3.24
AUAAAAGCGCCAGAACUACAGAAAUGUAGUUGACGAGGCUGAGGUUUAUCGAAUUUUCGGCGGAUGCCUCCAAA [A39C G40U] | -3.87

Query string: Which measured log10 kcat value corresponds to AUAAAAGCGUCAGGACUACAGAAAUGUAGUUGACGAGGAGGAGGUUUAUCGAAUUUUCGGCGGAUGCCUCCAAA [C10U A14G] ?
Result string: -3.74

Query string: Which measured log10 kcat value corresponds to AUAAAAGCGCCGGUACUACAGAAAUGUAGUUGACGAGGAGGAGGUUUAUCGAAUUUUAGGCGGAUCCCUCCAAA [A12G A14U C58A G66C] ?
Result string: -3.61

Query string: Which measured log10 kcat value corresponds to AUAAAAGCGCCAGAACUACAGAAAUGUAGUUGACGAGGUGGAGGUUUAUCGAAUUUUUGGCGGAUGCCUCCAAA [A39U C58U] ?
Result string: -4.72

Query string: Which measured log10 kcat value corresponds to AUAAAAGCGCCAGAACUACAGAAAUGUAGUCGUCGAGGAGGAGGUUUAUCGAAUUUUCGGCGGAUGCCUCCAAA [U31C A33U] ?
Result string: -4.71
